Property: growth; scope: individual compounds
# System: CAKI-1 renal
# procedureDetails: NCI-60 one-dose screen, 48 h (100 = growth as untreated, 0 = no growth, -100 = all killed)
# assaySetup: 10 µM unless noted
Compounds without any hit were thinned out: in the full panel of roughly 83,000, 20% have a hit. Calls of active or inactive are those of the source. Rule for the calls: active = growth percent below 10; inactive = the rest.

- compoundString: "COc1ccc(/C(C)=C(\\c2ccc(OCCN3CCCCCC3)cc2)c2ccc(OC(=O)c3ccccc3)cc2)cc1"
  parameter: "growth"
  experimentalValue: "52.9% (inactive)"
- compoundString: "N#C/C(=C\\c1ccc(Br)cc1)c1cc2ccccc2[nH]1"
  parameter: "growth"
  experimentalValue: "92.7% (inactive)"

From here, focus on the item given below.
Param readout= growth; system= CAKI-1 renal; entry= COc1ccc(Nc2ncc(C(N)=O)c(NCCCNC(=O)C3CCC3)n2)cc1 ; returns value.
34.7% (inactive)

###

# Tested on: NCI-H522 lung
# procedureDetails: NCI-60 one-dose screen, 48 h
# assaySetup: 10 µM unless noted
About 83,000 compounds went through this panel and 20% of them were active in at least one assay; those are over-represented in the sample as a whole. Activity calls are given as the source filed them. Rule for the calls: active = growth percent below 10; inactive = the rest.
Write down the outcome that applies. Available outcomes: active, inactive

Here's what some known entries look like.
- compound: "COc1cc(/C=N/Nc2ccccc2F)cc(OC)c1OC"
  groupLabel: "inactive"
- compound: "COc1cc(C2Cc3ncccc3-c3[nH]c(=O)c4cccnc4c32)cc(OC)c1OC (stereo not drawn)"
  groupLabel: "active"
- compound: "CC(C)[C@@]12C[C@@H](OC(=O)COC(=O)c3ccccc3)[C@@](C)(O1)[C@@H]1CC[C@@H](C)[C@H]1[C@@H]2OC(=O)/C=C/c1ccccc1"
  groupLabel: "inactive"
- compound: "CCOC(=O)c1n[nH]n2c1nc(=O)c1cnn(C)c12"
  groupLabel: "inactive"
- compound: "O=C(/C=C\\c1ccco1)/C=C/c1ccco1"
  groupLabel: "inactive"
- compound: "Cc1ccc(S(=O)(=O)n2cc(C3C(Cl)C(=O)N3c3ccc(N4CCOCC4=O)cc3)c3ccccc32)cc1 (stereo not drawn)"
  groupLabel: "inactive"

Turning now to a further compound:
Answer briefly: the call reported for COc1ccc(-c2ccc(-c3ccc(C(=N)N)cn3)s2)cc1 in this assay.
inactive

###

# Tested on: COLO 205 colon
# procedureDetails: NCI-60 one-dose screen, 48 h (100 = growth as untreated, 0 = no growth, -100 = all killed)
# assaySetup: 10 µM unless noted
Compounds without any hit were thinned out: in the full panel of roughly 83,000, 20% have a hit. Active and inactive are the calls of the source. How the source made its calls: active means growth percent below 10; inactive means the rest.
parameter: growth

- compound: "CCN(CC)c1ccc(/C=N/NC(=O)c2ccc(Nc3ccnc(C(F)(F)F)c3)cc2)c(O)c1"
  experimentalValue: "-18% (active)"
- compound: "COc1ccc2nc3cc(Cl)ccc3c(NCCN)c2c1"
  experimentalValue: "-83.2% (active)"
- compound: "CCCCCCC(CCCC)COC(=O)c1ccc(Cl)cc1 (stereo unspecified)"
  experimentalValue: "108% (inactive)"
- compound: "O=C(CN1CCN(c2cc3c(cc2F)c(=O)c(C(=O)O)cn3C2CC2)CC1)N/N=C/c1ccncc1"
  experimentalValue: "108% (inactive)"
- compound: "CCN(C(=O)N1CCN(c2cc3c(cc2F)c(=O)c(C(=O)O)cn3C2CC2)CC1)c1nc(-c2ccc(C)cc2)cs1"
  experimentalValue: "-21.2% (active)"

Which growth value is on record for COc1ccc(-c2ccc(-c3ccc(C(=N)N)cn3)s2)cc1 ?
62.4% (inactive)

So what's the measured growth for this one? Nc1c(C(=O)Nc2ccccn2)sc2nc3c(cc12)C(O)CCC3 (stereo unspecified)
23.6% (inactive)

// returns reported growth for input COc1ccc(C2CC(c3ccc(Nc4nc(Nc5ccc(F)cc5)nc(Nc5ccc(F)cc5)n4)cc3)=NN2C(C)=O)cc1 (stereo unspecified)
111% (inactive)

Recorded growth of C=NNc1ccccc1 , please.
100% (inactive)

Give the measured growth of N#Cc1c(-c2ccccc2)cc(-c2ccccc2)n(CCCC(=O)NO)c1=O .
18.3% (inactive)

// lookup growth for Nc1nc(C(=O)N/N=C/c2ccc(N3CCOCC3)cc2)nn1-c1ccc(S(N)(=O)=O)cc1
120% (inactive)

Entry under review: CC(C)=CC(=O)N[C@@H]1CC2CCC3C(CC[C@@]4(C)C3CC[C@@H]4C(C)N(C)C)[C@@]2(C)C[C@@H]1O (stereo partly specified) . Reported growth?
14.8% (inactive)

Tell me the measured growth of Cc1ccc(-c2nc(C#N)c(S(=O)(=O)NCCO)o2)cc1 , please.
43.1% (inactive)

Any idea what growth was measured for CCC(CC)(N(CC(=O)O)CC(=O)O)C(CC)(CC)N(CC(=O)O)CC(=O)O ?
113% (inactive)

Which value of growth has been reported for CCN(CC)CCNC(=O)c1ccc(-c2nc3ccc4[nH]ncc4c3c3c2CCCC3)cc1 in the records?
63.6% (inactive)

###

# System: MOLT-4 leukemia
# procedureDetails: NCI-60 one-dose screen, 48 h (100 = growth as untreated, 0 = no growth, -100 = all killed)
# assaySetup: 10 µM unless noted
About 83,000 compounds went through this panel and 20% of them were active in at least one assay; those are over-represented in the sample as a whole.
parameter: growth (%)
Kindly provide the numeric value in % only, without the unit symbol.

- molecule: "COc1ccc(/C=C/C(=O)c2cc3c(N)c(C(=O)Nc4ccc(OC)cc4)sc3nc2C)cc1"
  systemTested: "MOLT-4 leukemia"
  growth / %: 33.3
- molecule: "Cc1ccc(Nc2nc(-c3ccc(F)cc3)c(C#N)c(=O)n2C)cc1"
  systemTested: "MOLT-4 leukemia"
  growth / %: 81.5
- molecule: "CCOc1ccc(/C=N\\N=C\\c2ccc(OCC)cc2)cc1"
  systemTested: "MOLT-4 leukemia"
  growth / %: 81
- molecule: "CCOC(=O)/C=C/c1c(C)[nH]c(=O)[nH]c1=O"
  systemTested: "MOLT-4 leukemia"
  growth / %: 61.3

Let us examine a further case.
Please give the measured growth for this molecule: CCCCCCC(CCCC)COC(=O)c1ccc(Cl)cc1 (stereo not given)
98.8

###

Collected growth values appear next to each entry.
# System: RXF 393 renal
# procedureDetails: NCI-60 one-dose screen, 48 h (100 = growth as untreated, 0 = no growth, -100 = all killed)
# assaySetup: 10 µM unless noted
About 83,000 compounds went through this panel and 20% of them were active in at least one assay; those are over-represented in the sample as a whole. Activity calls are given as the source filed them. Rule for the calls: active = growth percent below 10; inactive = the rest.

- compound: "COC1=CC(c2ccc[nH]2)=N/C1=C\\c1[nH]c(C)c(CC(=O)OCc2ccccc2)c1C"
  growth: "-26.7% (active)"
- compound: "CCCNc1nc2ccccc2c2c(=O)c3cccc(Cl)c3sc12"
  growth: "98.5% (inactive)"
- compound: "O=C1/C=C/[C@@H](O)[C@@H]2C[C@@H](O)C[C@H]2/C=C/CCC[C@H](CCOCc2ccccc2)O1"
  growth: "-2.06% (active)"

Item: O=C1Nc2ccccc2C2c3cccn3-c3ccccc3N12 (stereo not drawn) Test system: RXF 393 renal Read-out: growth Value: ?
51.7% (inactive)

Notebook entry, RXF 393 renal assay: growth of COc1ccc(-c2cn(-c3ccc(Cl)cc3)c(SCC(=O)c3ccc([N+](=O)[O-])cc3)n2)cc1 = ?
54.1% (inactive)

Look up growth with RXF 393 renal for this compound: CC(C)(C)c1cc(C=Nc2cccc(C(F)(F)F)c2)c(O)c(C(C)(C)C)c1
94.3% (inactive)

Field: growth (RXF 393 renal). Entry: Clc1ccc(-c2nc(-c3c[nH]c4ncccc34)cs2)cc1
18.5% [100 µM] (inactive)

State its growth on RXF 393 renal: Cc1ccc(-c2csc(NC(=O)N3CCN(c4cc5c(cc4F)c(=O)c(C(=O)O)cn5C4CC4)CC3)n2)cc1
26.6% (inactive)

###

# System: 786-0 renal
# procedureDetails: NCI-60 one-dose screen, 48 h (100 = growth as untreated, 0 = no growth, -100 = all killed)
# assaySetup: 10 µM unless noted
This is part of a sample that, as a whole, favours compounds with a hit. Of some 83,000 tested, about 20% had one in any assay.
hey, just use class 1 if measured growth is less than 80%, otherwise class 0

Consider the worked cases shown below.
- molecule: "C[C@H]1[C@H](C)CC[C@]2(C(=O)O)CC[C@]3(C)C(=CC[C@@H]4[C@@]5(C)C[C@@H](Cc6cn([C@@H]7O[C@H](CO)[C@@H](O)[C@H](O)[C@H]7O)nn6)[C@H](O)C(C)(C)[C@@H]5CC[C@]43C)[C@H]12"
  groupLabel: "class 0"
- molecule: "CCNc1nc(-c2ccc(F)cc2)c(C#N)c(=O)n1C"
  groupLabel: "class 1"
- molecule: "Cc1cscc(C)c1=S"
  groupLabel: "class 0"
- molecule: "C(/C=C/c1ccccc1)=Nc1ccc(CCc2ccc(N=C/C=C/c3ccccc3)cc2)cc1"
  groupLabel: "class 0"
- molecule: "CCN1C(=S)N(CC)C2C1NC(=S)N2/N=C/C=C/c1ccccc1OC (stereo not drawn)"
  groupLabel: "class 1"
- molecule: "COc1ccc(C/C(C)=C(/c2ccc(OCCN3CCCCCC3)cc2)c2ccc(OC(=O)NCc3ccccc3)cc2)cc1"
  groupLabel: "class 0"

Moving on to another molecule below.
Find out if reported growth for Cc1nn(-c2ccccc2)c(/N=C/N(C)C)c1/C=C/C(=O)c1ccc(Cl)cc1 is less than 80%
class 0
